protocol: Antiproliferative activity against human fibroblasts after 48 hrs by resazurin reduction test
Assay type: cell-based
condition notes: Fibroblast
measure: IC50 (µM)
Write the answer as a number in µM, unit excluded.

CC(=O)OC[C@H]1O[C@@H](NC(=O)CCCCCNC(=O)n2cc(F)c(=O)[nH]c2=O)[C@H](F)[C@@H](OC(C)=O)[C@@H]1OC(C)=O yielded IC50 of 5

CC(=O)OC[C@H]1O[C@@H](NC(=O)CNC(=O)n2cc(F)c(=O)[nH]c2=O)[C@H](F)[C@@H](OC(C)=O)[C@@H]1OC(C)=O yielded IC50 of 6.4

O=c1[nH]cc(F)c(=O)[nH]1 yielded IC50 of 11

CC(=O)OC[C@H]1O[C@@H](NC(=O)CCCNC(=O)n2cc(F)c(=O)[nH]c2=O)[C@H](F)[C@@H](OC(C)=O)[C@@H]1OC(C)=O yielded IC50 of 15
